- TGT: Bcl-2-like protein 10 (Homo sapiens)
- ASSAY COMMENT: small molecules blocking Bcl-B/Bim BH3 binding – biochemical, fluorescence polarization, set 2, SAR follow-up (AID 720677)
- EXPERIMENTAL CONDITIONS: GST-Bcl-B / FITC-Bim peptide fluorescence polarization displacement
Active and inactive are the calls of the source.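 The calls were made as follows: active = compounds whose IC50 is at or below a set limit; inactive = the rest.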
Give one outcome, nothing more. List: active, inactive

>>> label_value("O=c1c2c(n3nnnc3n1Cc1ccccc1Cl)-c1ccccc1CC21CCCC1")
"inactive"
>>> label_value("COc1ccc(Cn2c(=O)c3c(n4nnnc24)-c2ccccc2CC32CCCC2)cc1")
"active"
>>> label_value("COc1ccc(Cn2c(=O)c3c(n4cnnc24)-c2cc(F)ccc2CC32CCCC2)cc1")
"active"
>>> label_value("O=c1c2c(n3cnnc3n1Cc1ccc(F)cc1)-c1cc(F)ccc1CC21CCCC1")
"inactive"
>>> label_value("COc1ccc(Cn2c(=O)c3c(n4nnnc24)-c2cc(F)ccc2CC32CCCC2)cc1")
"active"
>>> label_value("COc1cccc(Cn2c(=O)c3c(n4nnnc24)-c2ccccc2CC32CCCC2)c1")
"active"

INPUT: Record request — test call for `COc1ccccc1Cn1c(=O)c2c(n3nnnc13)-c1ccccc1CC21CCCC1`
OUTPUT: inactive
